Target: human c-Met (human, UniProt P08581 25-1390)
Sequence (P08581 25-1390): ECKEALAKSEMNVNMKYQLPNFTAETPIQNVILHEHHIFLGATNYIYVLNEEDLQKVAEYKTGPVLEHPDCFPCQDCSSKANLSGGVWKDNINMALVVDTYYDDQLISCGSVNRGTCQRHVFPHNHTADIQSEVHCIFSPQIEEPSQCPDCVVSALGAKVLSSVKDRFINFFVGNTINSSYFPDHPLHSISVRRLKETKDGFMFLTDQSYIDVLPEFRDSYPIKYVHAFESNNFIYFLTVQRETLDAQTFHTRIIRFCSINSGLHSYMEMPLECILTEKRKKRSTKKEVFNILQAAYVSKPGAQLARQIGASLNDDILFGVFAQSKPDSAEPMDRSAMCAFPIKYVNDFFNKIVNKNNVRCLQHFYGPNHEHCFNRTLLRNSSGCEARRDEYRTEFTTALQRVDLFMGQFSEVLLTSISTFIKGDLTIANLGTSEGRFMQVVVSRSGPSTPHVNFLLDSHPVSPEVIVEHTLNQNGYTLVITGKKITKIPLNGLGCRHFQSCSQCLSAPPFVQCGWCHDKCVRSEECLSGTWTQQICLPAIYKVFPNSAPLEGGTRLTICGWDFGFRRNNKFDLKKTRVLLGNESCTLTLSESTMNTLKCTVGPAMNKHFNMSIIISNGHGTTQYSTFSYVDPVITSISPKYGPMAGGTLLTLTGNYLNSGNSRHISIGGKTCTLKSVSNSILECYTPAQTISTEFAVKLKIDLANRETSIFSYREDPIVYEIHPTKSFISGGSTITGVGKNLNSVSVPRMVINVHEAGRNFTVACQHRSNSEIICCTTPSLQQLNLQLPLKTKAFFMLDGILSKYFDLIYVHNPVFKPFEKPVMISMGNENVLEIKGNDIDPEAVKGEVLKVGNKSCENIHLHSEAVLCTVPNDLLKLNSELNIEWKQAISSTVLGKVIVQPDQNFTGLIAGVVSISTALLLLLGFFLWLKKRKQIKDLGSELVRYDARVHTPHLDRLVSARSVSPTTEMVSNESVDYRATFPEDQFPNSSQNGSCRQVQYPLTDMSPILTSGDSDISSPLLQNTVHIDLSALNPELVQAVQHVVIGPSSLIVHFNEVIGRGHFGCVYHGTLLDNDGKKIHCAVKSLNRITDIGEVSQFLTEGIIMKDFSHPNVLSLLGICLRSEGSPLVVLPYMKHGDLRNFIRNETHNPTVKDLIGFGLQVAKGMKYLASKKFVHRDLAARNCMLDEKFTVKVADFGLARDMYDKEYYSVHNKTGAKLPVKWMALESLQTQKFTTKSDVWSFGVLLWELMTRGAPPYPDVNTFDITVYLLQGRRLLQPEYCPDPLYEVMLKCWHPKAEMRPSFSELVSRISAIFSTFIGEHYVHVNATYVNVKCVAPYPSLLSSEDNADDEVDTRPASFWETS
Assay: cell-based or functional assay
measure: AVG CPM, 3H-thymidine incorporation in MKN45 cells, Ab 0.0 ng/mL (no antibody) (CPM)
Write the answer as a number in CPM, unit excluded.

binder	reading
D11-S17Y (antibody, human IgG2, kappa, V domains shown, Human engineered IgG2 kappa c-Met antibody; also called D11-S17Y IgG2) VH: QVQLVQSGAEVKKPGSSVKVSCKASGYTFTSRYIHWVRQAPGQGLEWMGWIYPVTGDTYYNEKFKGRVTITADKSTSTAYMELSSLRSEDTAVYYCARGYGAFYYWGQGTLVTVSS VL: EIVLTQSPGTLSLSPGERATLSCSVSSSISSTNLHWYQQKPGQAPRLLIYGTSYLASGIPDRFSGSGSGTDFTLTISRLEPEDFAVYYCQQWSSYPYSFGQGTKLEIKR	44200
C8-6 (antibody, human IgG2, kappa, V domains shown, Named IgG4 kappa; also called C8-6 IgG4) VH: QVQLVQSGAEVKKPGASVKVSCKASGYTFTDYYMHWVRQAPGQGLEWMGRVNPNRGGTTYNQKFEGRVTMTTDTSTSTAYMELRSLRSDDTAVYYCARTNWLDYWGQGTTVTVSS VL: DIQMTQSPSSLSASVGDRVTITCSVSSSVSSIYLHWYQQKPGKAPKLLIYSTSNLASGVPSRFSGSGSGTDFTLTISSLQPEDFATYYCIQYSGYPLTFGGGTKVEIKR	48700
D11-C27G3 (antibody, human IgG2, kappa, V domains shown, Human engineered IgG2 kappa c-Met antibody; also called D11-27G3; D11-C27G3 IgG2) VH: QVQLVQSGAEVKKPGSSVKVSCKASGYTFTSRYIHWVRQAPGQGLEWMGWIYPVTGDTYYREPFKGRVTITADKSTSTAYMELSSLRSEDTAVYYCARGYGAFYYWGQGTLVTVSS VL: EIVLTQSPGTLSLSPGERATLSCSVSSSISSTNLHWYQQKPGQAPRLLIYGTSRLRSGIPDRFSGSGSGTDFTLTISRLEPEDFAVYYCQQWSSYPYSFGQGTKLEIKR	44200

Problem: State the recorded AVG CPM, 3H-thymidine incorporation in MKN45 cells, Ab 0.0 ng/mL (no antibody) for this entry: C8-co-16 (antibody, human IgG2, kappa, V domains shown, Named IgG4 kappa; also called C8-co-16 IgG4) VH: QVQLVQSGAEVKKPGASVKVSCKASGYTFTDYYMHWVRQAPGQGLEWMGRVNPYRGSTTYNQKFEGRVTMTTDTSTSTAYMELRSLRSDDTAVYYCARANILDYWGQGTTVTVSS VL: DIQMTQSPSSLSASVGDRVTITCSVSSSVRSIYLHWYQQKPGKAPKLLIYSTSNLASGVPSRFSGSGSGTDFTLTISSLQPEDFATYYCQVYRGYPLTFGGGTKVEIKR
Result: 51500
